- assayed.target: T1, recombinant hCD127 (Sino Biologicals, reference 10975-H08H) (human, UniProt P16871 21-239)
- T1 construct: Bought recombinant protein; In the Blitz assay the protein is said to be captured by an Fc fragment, and a second catalogue number (11612-H08H) is printed; also called human CD127 recombinant protein; recombinant human CD127
- T1 chain: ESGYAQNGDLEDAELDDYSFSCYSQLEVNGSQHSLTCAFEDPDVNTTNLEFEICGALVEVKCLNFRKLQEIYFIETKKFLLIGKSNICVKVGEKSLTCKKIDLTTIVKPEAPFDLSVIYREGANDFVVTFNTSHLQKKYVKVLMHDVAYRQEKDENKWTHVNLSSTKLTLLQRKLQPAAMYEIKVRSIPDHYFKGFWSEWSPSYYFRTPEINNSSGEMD
- measurement.description: Blitz (BLI), hCD127 captured on anti-human IgG Fc (AHC) biosensor, antibody at 20 µg/mL
Entries annotated with measured pKd
// returns pKd (minus log10 of molar concentration), number only

IN: State the recorded pKd for this entry: N13B2-h3 (antibody, V domains shown, also called humanized N13B2 of WO 2015/189302) VH: QVQLVESGGGLVKPGGSLRLSCAVSGFTLSDYYMAWIRQAPGKGLEWVSTISASGLRTYYPDSVKGRFTISRDNAKNSLYLQMNSLRAEDTAVYYCARPLSAHYGFNYFDYWGQGTLVTVSS VL: EIVMTQSPATLSVSPGERATLSCRTSEDIYQGLAWYQQKPGQAPRLLIYSANTLHIGIPARFSGSGSGTEFTLTISSLQSEDFAVYYCQQYYDYPLAFGGGTKVEIKR
OUT: 8.63
